Where these numbers come from: ChEMBL document CHEMBL1649387

IC50 reference
System: MDA-MB-435
Test: Cytotoxicity against human MDA-MB-435 cells after 72 hrs by MTT assay
Assay type: functional, cell-based
Details: MDA-MB-435, 72 h

Check out these entries, answers already filled in.
- COMPOUND: "CCCC1=C(O)C(=O)c2ccccc2C1=O"
  IC50: "> 23.1 µM"
- COMPOUND: "CC1(C)OC2=C(C(=O)C(=O)c3ccccc32)[C@H](n2cc(-c3ccc(Br)cc3)nn2)[C@H]1Br"
  IC50: "1.99 µM"
- COMPOUND: "CC1(C)OC2=C(C(=O)C(=O)c3ccccc32)[C@H](N=[N+]=[N-])[C@H]1Br"
  IC50: "1.54 µM"

Could you now look at the following compound, please?
## Input State, in one line, measured IC50 of CC(C)CCC1=C(OC2(CCC(C)C)C(=O)C(=O)c3ccccc3C2=O)C(=O)c2ccccc2C1=O (centres undefined)
## Output > 10.3 µM
